- Method: Hepatocyte stability assay, mouse hepatocytes
- Format: in vitro ADME
- Measurement Context: cryopreserved hepatocytes, read-out: Hepatocytes T½ (min) Mouse
Parameter: half-life at 1 μM (min)
Entry rule: numbers only, all in min.

// below: answered compounds
>  <Compound>
CC(C)(c1ccc(OCc2ocnc2S(C)(=O)=O)cc1)c1cc(Cl)c(OCCCl)c(C#N)c1

>  <Quantity Unit>
min

>  <half-life at 1 μM>
86

$$$$
>  <Compound>
CC(C)(c1ccc(OC[C@H](O)CNS(C)(=O)=O)cc1)c1cc(Cl)c(OC[C@H](O)CCl)c(Cl)c1 [X, reference compound]

>  <Quantity Unit>
min

>  <half-life at 1 μM>
33

$$$$

# next compound below
[in] Name the reported half-life at 1 μM value associated with the compound CC(C)(c1ccc(OCc2ocnc2S(C)(=O)=O)cc1)c1cc(Cl)c(OCCCl)c(Cl)c1
[out] 203
